Source: patent US20220056134A1

biological target: T1, MET-R Fc (R&D Systems, catalog number 8614-MT) (UniProt P08581 25-932); assay: SPR (BIAcore T200), Fab captured on anti-Fab chip, MET-R Fc as analyte, 25 C, 1:1 model
T1 construct: Bought reagent used as SPR analyte; not shown: Fc part of the bought fusion protein
T1 sequence (P08581 25-932 limits assumed): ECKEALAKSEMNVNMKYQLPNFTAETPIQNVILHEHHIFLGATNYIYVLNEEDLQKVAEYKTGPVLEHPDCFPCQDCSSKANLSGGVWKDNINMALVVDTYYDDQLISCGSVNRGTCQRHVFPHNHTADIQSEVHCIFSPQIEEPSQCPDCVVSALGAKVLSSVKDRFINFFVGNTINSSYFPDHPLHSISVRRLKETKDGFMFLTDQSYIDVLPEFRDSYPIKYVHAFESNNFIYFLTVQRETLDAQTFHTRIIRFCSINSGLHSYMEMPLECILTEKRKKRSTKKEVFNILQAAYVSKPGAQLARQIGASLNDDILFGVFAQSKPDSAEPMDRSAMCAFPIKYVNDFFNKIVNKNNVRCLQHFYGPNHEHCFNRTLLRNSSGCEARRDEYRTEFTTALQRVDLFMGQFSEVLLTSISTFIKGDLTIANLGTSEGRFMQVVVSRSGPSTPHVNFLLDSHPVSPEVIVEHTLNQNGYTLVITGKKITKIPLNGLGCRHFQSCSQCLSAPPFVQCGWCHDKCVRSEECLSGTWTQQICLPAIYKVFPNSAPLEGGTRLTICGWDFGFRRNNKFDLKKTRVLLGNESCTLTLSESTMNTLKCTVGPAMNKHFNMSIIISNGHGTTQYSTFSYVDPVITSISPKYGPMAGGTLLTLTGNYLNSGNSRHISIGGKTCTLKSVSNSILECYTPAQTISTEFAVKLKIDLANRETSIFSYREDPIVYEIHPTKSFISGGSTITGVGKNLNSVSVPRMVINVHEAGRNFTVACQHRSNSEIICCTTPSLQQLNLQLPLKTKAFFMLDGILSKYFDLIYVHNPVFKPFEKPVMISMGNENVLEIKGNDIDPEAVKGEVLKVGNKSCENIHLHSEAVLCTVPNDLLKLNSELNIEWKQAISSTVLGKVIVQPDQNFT
Below, each of the binders is paired with its reported Kd value.
The answer is to be given in nM; state only the numeric part.

Examples with their reported Kd follow.
Look at this binder and give its reported Kd. anti-MET Fab variant CDR L3 Y91A (Fab, V domains shown, Fab; variable domains only) VH: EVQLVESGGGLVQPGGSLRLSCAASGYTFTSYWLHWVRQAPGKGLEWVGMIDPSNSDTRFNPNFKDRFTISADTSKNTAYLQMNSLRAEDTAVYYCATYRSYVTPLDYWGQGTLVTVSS VL: DIQMTQSPSSLSASVGDRVTITCKSSQSLLYTSSQKNYLAWYQQKPGKAPKLLIYWASTRESGVPSRFSGSGSGTDFTLTISSLQPEDFATYYCQQAYAYPWTFGQGTKVEIK
0.8

Param item: anti-MET Fab variant CDR L3 Y94A (Fab, V domains shown, Fab; variable domains only; Kabat numbering) VH: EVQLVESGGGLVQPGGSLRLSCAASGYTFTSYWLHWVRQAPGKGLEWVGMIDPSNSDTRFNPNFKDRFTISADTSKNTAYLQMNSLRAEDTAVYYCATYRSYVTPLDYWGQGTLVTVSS VL: DIQMTQSPSSLSASVGDRVTITCKSSQSLLYTSSQKNYLAWYQQKPGKAPKLLIYWASTRESGVPSRFSGSGSGTDFTLTISSLQPEDFATYYCQQYYAAPWTFGQGTKVEIK
5.7

Next, consider the following binder.
Look at this binder and give its reported Kd. anti-MET Fab variant CDR L3 Y92A (Fab, V domains shown, Fab; variable domains only; Kabat numbering) VH: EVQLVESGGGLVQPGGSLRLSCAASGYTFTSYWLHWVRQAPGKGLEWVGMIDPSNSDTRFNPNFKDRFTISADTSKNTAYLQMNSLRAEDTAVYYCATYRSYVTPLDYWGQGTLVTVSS VL: DIQMTQSPSSLSASVGDRVTITCKSSQSLLYTSSQKNYLAWYQQKPGKAPKLLIYWASTRESGVPSRFSGSGSGTDFTLTISSLQPEDFATYYCQQYAAYPWTFGQGTKVEIK
1.1
